# experimental_details: Solubility of crystal forms in water and simulated gastric-intestinal fluid
# Type: physicochemical
# condition_notes: thermodynamic from solid; SGF (simulated gastric fluid), 25° C., equilibrated 18 hours; read-out: Average solubility
# Description: About 2 mg of each compound was respectively placed in several glass vials, and pure water, simulated gastric fluid (SGF), simulated intestinal fluid under fasted status (FaSSIF), and simulated intestinal fluid under fed status (FeSSIF) were respectively added to prepare a final sample concentration of 2 mg/mL. The samples were sonicated to be dispersed evenly and then rotated 360 degree-wise to equilibrate for 18 hours at room temperature (25° C.). […]
readout_kind: solubility at 18 h (µg/mL)
Just the number in µg/mL, nothing appended.

Data request: Can you look up the measured solubility at 18 h of O=C(C1CCCCC1)N1CC(=O)N2CCc3ccccc3C2C1 (racemic) [Praziquantel crystal form, praziquantel] for me?
Data returned: 192
